Species: Rattus norvegicus
procedure.text: Open TG-GATES - Regimen: Single
Assay type: toxicity, organism-based, Sprague-Dawley
Set-up: regimen Single, gender Male, age 6 weeks
experimental.parameters: in vivo, po, 100 mg/kg, 24 h, tissue Plasma, route gavage, dose level Low
assay.readout: K (meq/L)
Express it in meq/L; write the number only.

Task: Which value of K has been reported for "Clc1ccccc1CN1CCc2sccc2C1" in the records?
Output: 4.1

Task: Which value of K has been reported for CCc1cc(C(N)=S)ccn1 [ETHIONAMIDE] in the records?
Output: 4.6

Task: Which value of K has been reported for "O=C(O)c1cc(/N=N/c2ccc(S(=O)(=O)Nc3ccccn3)cc2)ccc1O" in the records?
Output: 4.1

Task: Which value of K has been reported for "C[C@H](CS)C(=O)N1CCC[C@H]1C(=O)O" in the records?
Output: 4.6

Then there is this molecule:
Task: Which value of K has been reported for "O=C(O)c1cn(C2CC2)c2cc(N3CCNCC3)c(F)cc2c1=O" in the records?
Output: 4.7

----------
Organism: Rattus norvegicus
procedure.text: Open TG-GATES - Regimen: Single
Assay type: toxicity, organism-based, Sprague-Dawley
Parameters: regimen Single, gender Male, age 6 weeks
experimental.parameters: in vivo, po, 0 mg/kg, 3 h, tissue Plasma, route gavage, dose level Control
Flag rule - TG less than 50 mg/dL flags t; the remaining entries get f.

Here are 7 compounds together with their reported answers.
Task: Given "NC(=O)N/N=C/c1ccc([N+](=O)[O-])o1" , is recorded TG strictly lower than 50 mg/dL?
Output: f

Task: Given "O=C(O)c1cc(/N=N/c2ccc(S(=O)(=O)Nc3ccccn3)cc2)ccc1O" , is recorded TG strictly lower than 50 mg/dL?
Output: f

Task: Given CCc1cc(C(N)=S)ccn1 [ETHIONAMIDE] , is recorded TG strictly lower than 50 mg/dL?
Output: f

Task: Given "COc1ccc(Cc2nccc3cc(OC)c(OC)cc23)cc1OC" , is recorded TG strictly lower than 50 mg/dL?
Output: f

Task: Given "C[C@H](CS)C(=O)N1CCC[C@H]1C(=O)O" , is recorded TG strictly lower than 50 mg/dL?
Output: t

Task: Given CSc1ccc2c(c1)N(CCC1CCCCN1C)c1ccccc1S2 (stereo not given) , is recorded TG strictly lower than 50 mg/dL?
Output: f

Task: Given "CN(C)CCC=C1c2ccccc2CCc2ccccc21" , is recorded TG strictly lower than 50 mg/dL?
Output: t

Next:
Task: Given NC(=O)N1c2ccccc2C=Cc2ccccc21 [CARBAMAZEPINE] , is recorded TG strictly lower than 50 mg/dL?
Output: f

----------
Species: Rattus norvegicus
procedure.text: Open TG-GATES - Regimen: Single
Assay type: toxicity, organism-based, Sprague-Dawley
Parameters: regimen Single, gender Male, age 6 weeks
experimental.parameters: in vivo, po, 1000 mg/kg, 6 h, tissue Kidney, route gavage, dose level High
Below, each of the compounds is paired with its reported KIDNEY_TOTAL value.
Express it in g; write the number only.

These recorded examples may help you get a feel for the data.
Task: Which value of KIDNEY_TOTAL has been reported for "O=C(O)c1cc(/N=N/c2ccc(S(=O)(=O)Nc3ccccn3)cc2)ccc1O" in the records?
Output: 1.9

Task: Which value of KIDNEY_TOTAL has been reported for "O=C(O)c1cn(C2CC2)c2cc(N3CCNCC3)c(F)cc2c1=O" in the records?
Output: 1.7

Task: Which value of KIDNEY_TOTAL has been reported for "C[C@H](CS)C(=O)N1CCC[C@H]1C(=O)O" in the records?
Output: 2

Task: Which value of KIDNEY_TOTAL has been reported for CCc1cc(C(N)=S)ccn1 [ETHIONAMIDE] in the records?
Output: 2

Then there is this compound:
Task: Which value of KIDNEY_TOTAL has been reported for "Clc1ccccc1CN1CCc2sccc2C1" in the records?
Output: 1.8

----------
Species on record: Rattus norvegicus
procedure.text: Open TG-GATES - Regimen: Single
Type: toxicity, organism-based, Sprague-Dawley
Parameters: regimen Single, gender Male, age 6 weeks
experimental.parameters: in vivo, po, 1000 mg/kg, 6 h, tissue Blood, route gavage, dose level High
Below, each of the compounds is paired with its reported Fbg value.
Express it in mg/dL; write the number only.

These recorded examples may help you get a feel for the data.
Task: Which value of Fbg has been reported for O=C(O)c1cc(/N=N/c2ccc(S(=O)(=O)Nc3ccccn3)cc2)ccc1O [SULFASALAZINE] in the records?
Output: 226

Task: Which value of Fbg has been reported for C[C@H](CS)C(=O)N1CCC[C@H]1C(=O)O [CAPTOPRIL] in the records?
Output: 205.6

Task: Which value of Fbg has been reported for O=C(O)c1cn(C2CC2)c2cc(N3CCNCC3)c(F)cc2c1=O [CIPROFLOXACIN] in the records?
Output: 210.4

Task: Which value of Fbg has been reported for Clc1ccccc1CN1CCc2sccc2C1 [TICLOPIDINE] in the records?
Output: 230.6

Then there is this compound:
Task: Which value of Fbg has been reported for CCc1cc(C(N)=S)ccn1 [ETHIONAMIDE] in the records?
Output: 209.2

----------
Organism: Rattus norvegicus
procedure.text: Open TG-GATES - Regimen: Single
Type: toxicity, organism-based, Sprague-Dawley
Parameters: regimen Single, gender Male, age 6 weeks
experimental.parameters: in vivo, po, 0 mg/kg, 9 h, tissue Plasma, route gavage, dose level Control
Note to self: values exactly at 10 mg/dL are True. So BUN at or above 10 mg/dL is True, below is False.

Here are 5 compounds together with their reported answers.
Task: API: above_or_equal(metric=BUN, cutoff=10 mg/dL) for item CCc1cc(C(N)=S)ccn1 [ETHIONAMIDE]
Output: True

Task: API: above_or_equal(metric=BUN, cutoff=10 mg/dL) for item "Cn1c(=O)c2[nH]cnc2n(C)c1=O.O"
Output: True

Task: API: above_or_equal(metric=BUN, cutoff=10 mg/dL) for item "O=C(O)c1cn(C2CC2)c2cc(N3CCNCC3)c(F)cc2c1=O"
Output: True

Task: API: above_or_equal(metric=BUN, cutoff=10 mg/dL) for item "C[C@H](CS)C(=O)N1CCC[C@H]1C(=O)O"
Output: True

Task: API: above_or_equal(metric=BUN, cutoff=10 mg/dL) for item "COc1ccc(Cc2nccc3cc(OC)c(OC)cc23)cc1OC"
Output: True

Next:
Task: API: above_or_equal(metric=BUN, cutoff=10 mg/dL) for item "O=C(O)c1cc(/N=N/c2ccc(S(=O)(=O)Nc3ccccn3)cc2)ccc1O"
Output: True

Task: API: above_or_equal(metric=BUN, cutoff=10 mg/dL) for item "CC(=O)Oc1ccccc1C(=O)O"
Output: False

Task: API: above_or_equal(metric=BUN, cutoff=10 mg/dL) for item CSc1ccc2c(c1)N(CCC1CCCCN1C)c1ccccc1S2 (stereo unspecified)
Output: True

Task: API: above_or_equal(metric=BUN, cutoff=10 mg/dL) for item "CN(C)CCC=C1c2ccccc2CCc2ccccc21"
Output: False

Task: API: above_or_equal(metric=BUN, cutoff=10 mg/dL) for item "NC(=O)N/N=C/c1ccc([N+](=O)[O-])o1"
Output: False

----------
Below, each of the molecules is paired with its reported APTT value.
Species: Rattus norvegicus
procedure.text: Open TG-GATES - Regimen: Single
Assay type: toxicity, organism-based, Sprague-Dawley
Set-up: regimen Single, gender Male, age 6 weeks
experimental.parameters: in vivo, po, 100 mg/kg, 6 h, tissue Blood, route gavage, dose level Low
Express it in s; write the number only.

These recorded examples may help you get a feel for the data.
Task: Which value of APTT has been reported for CCc1cc(C(N)=S)ccn1 [ETHIONAMIDE] in the records?
Output: 17.1

Task: Which value of APTT has been reported for "C[C@H](CS)C(=O)N1CCC[C@H]1C(=O)O" in the records?
Output: 16.3

Task: Which value of APTT has been reported for "O=C(O)c1cn(C2CC2)c2cc(N3CCNCC3)c(F)cc2c1=O" in the records?
Output: 17.2

Task: Which value of APTT has been reported for "O=C(O)c1cc(/N=N/c2ccc(S(=O)(=O)Nc3ccccn3)cc2)ccc1O" in the records?
Output: 19

Then there is this molecule:
Task: Which value of APTT has been reported for "Clc1ccccc1CN1CCc2sccc2C1" in the records?
Output: 18.1

----------
Species on record: Rattus norvegicus
procedure.text: Open TG-GATES - Regimen: Single
Type: toxicity, organism-based, Sprague-Dawley
Parameters: regimen Single, gender Male, age 6 weeks
experimental.parameters: in vivo, po, 1000 mg/kg, 9 h, tissue Blood, route gavage, dose level High
assay.readout: APTT (s)
Express it in s; write the number only.

Task: Which value of APTT has been reported for O=C(O)c1cc(/N=N/c2ccc(S(=O)(=O)Nc3ccccn3)cc2)ccc1O [SULFASALAZINE] in the records?
Output: 18.8

Next:
Task: Which value of APTT has been reported for C[C@H](CS)C(=O)N1CCC[C@H]1C(=O)O [CAPTOPRIL] in the records?
Output: 16.6

Task: Which value of APTT has been reported for O=C(O)c1cn(C2CC2)c2cc(N3CCNCC3)c(F)cc2c1=O [CIPROFLOXACIN] in the records?
Output: 16.9

Task: Which value of APTT has been reported for CCc1cc(C(N)=S)ccn1 [ETHIONAMIDE] in the records?
Output: 18.3

Task: Which value of APTT has been reported for Clc1ccccc1CN1CCc2sccc2C1 [TICLOPIDINE] in the records?
Output: 18.1
